Tested on: BT-474
Experiment: Anti-proliferation assay (ATPLite), Chalice synergy score
Format: cell-based
Settings: Compound 1 in combination with the named second active agent, 72 h, mean of n = 3 experiments in triplicate
measurement-name: Synergy score

- smiles-data: "C=CC(=O)Nc1ccc2ncnc(Nc3ccc(OCc4cccc(F)c4)c(Cl)c3)c2c1"
  measurement-name: "Synergy score"
  observed: 4.02
- smiles-data: "CC[C@@H]1C(=O)N(C)c2cnc(Nc3ccc(C(=O)NC4CCN(C)CC4)cc3OC)nc2N1C1CCCC1"
  measurement-name: "Synergy score"
  observed: 9.25
- smiles-data: "C=CCn1c(=O)c2cnc(Nc3ccc(N4CCN(C)CC4)cc3)nc2n1-c1cccc(C(C)(C)O)n1"
  measurement-name: "Synergy score"
  observed: 9.61
- smiles-data: "C[C@@H](Oc1cc(-c2cnn(C3CCNCC3)c2)cnc1N)c1c(Cl)ccc(F)c1Cl"
  measurement-name: "Synergy score"
  observed: 1.07
- smiles-data: "CO[C@H]1/C=C\\C=C(/C)C(=O)NC2=CC(=O)C(NCCN(C)C)=C(C[C@@H](C)C[C@H](OC)[C@H](O)[C@@H](C)/C=C(\\C)[C@@H]1OC(N)=O)C2=O"
  measurement-name: "Synergy score"
  observed: 2.24
- smiles-data: "N.N.O=C([O-])C1(C(=O)[O-])CCC1.[Pt+2]"
  measurement-name: "Synergy score"
  observed: 0.30
- smiles-data: "CC(C)(C)Cn1c(N)nc2ccc(-c3[nH]c(C(C)(C)C)nc3-c3ccc(F)cc3)nc21"
  measurement-name: "Synergy score"
  observed: 2.81

----------
System: HCC70
Test: Anti-proliferation assay (ATPLite), Chalice synergy score
Assay type: cell-based
Settings: Compound 1 in combination with second active agent; HCC-70; mean self-cross + 2σ threshold 3.45
Label TRUE when Synergy score is at or above 2; otherwise label FALSE.

- molecule: "OCCn1cc(-c2cnc3nnn(Cc4ccc5ncccc5c4)c3n2)cn1"
  system-tested: "HCC70"
  cat: "FALSE"
- molecule: "CC[C@@H]1C(=O)N(C)c2cnc(Nc3ccc(C(=O)NC4CCN(C)CC4)cc3OC)nc2N1C1CCCC1"
  system-tested: "HCC70"
  cat: "TRUE"
- molecule: "N#Cc1c(O)c2c(-c3ccc(-c4ccccc4O)cc3)csc2[nH]c1=O"
  system-tested: "HCC70"
  cat: "FALSE"
- molecule: "CN(C)CCCn1cc(C2=C(c3c[nH]c4ccccc34)C(=O)NC2=O)c2ccccc21 [GF 109203X]"
  system-tested: "HCC70"
  cat: "TRUE"
- molecule: "Nc1ccccc1NC(=O)c1ccc(CNC(=O)OCc2cccnc2)cc1"
  system-tested: "HCC70"
  cat: "TRUE"
- molecule: "Oc1c2ccccc2c2c3c(cccc13)N=N2"
  system-tested: "HCC70"
  cat: "TRUE"
- molecule: "CS(=O)(=O)c1ccc(C(=O)Nc2ccc(Cl)c(-c3ccccn3)c2)c(Cl)c1"
  system-tested: "HCC70"
  cat: "FALSE"
- molecule: "C[C@@]1(C(=O)Nc2ccc(F)nc2)CCCN1c1nc(Nc2cc(C3CC3)n[nH]2)c2cccn2n1"
  system-tested: "HCC70"
  cat: "TRUE"
- molecule: "COc1c(C)cnc(Cn2cnc3c(Cl)nc(N)nc32)c1C"
  system-tested: "HCC70"
  cat: "TRUE"
- molecule: "CS(=O)(=O)N1CCN(Cc2cc3nc(-c4cccc5[nH]ncc45)nc(N4CCOCC4)c3s2)CC1"
  system-tested: "HCC70"
  cat: "TRUE"
- molecule: "CNC(=O)c1cc(Oc2ccc(NC(=O)Nc3ccc(Cl)c(C(F)(F)F)c3)cc2)ccn1"
  system-tested: "HCC70"
  cat: "TRUE"
- molecule: "O=C(NOC[C@H](O)CO)c1ccc(F)c(F)c1Nc1ccc(I)cc1F"
  system-tested: "HCC70"
  cat: "TRUE"
- molecule: "O=C(NC(NC(=S)Nc1ccc(F)c([N+](=O)[O-])c1)C(Cl)(Cl)Cl)C(c1ccccc1)c1ccccc1 (stereo not shown)"
  system-tested: "HCC70"
  cat: "TRUE"
- molecule: "CN(C)CC[C@H](CSc1ccccc1)Nc1ccc(S(=O)(=O)NC(=O)c2ccc(N3CCN(Cc4ccccc4-c4ccc(Cl)cc4)CC3)cc2)cc1[N+](=O)[O-]"
  system-tested: "HCC70"
  cat: "TRUE"
- molecule: "COCCn1c2c([n+](Cc3cnccn3)c1C)C(=O)c1ccccc1C2=O"
  system-tested: "HCC70"
  cat: "TRUE"
- molecule: "O=C(O)c1ccc2c(c1)nc(Nc1cccc(Cl)c1)c1ccncc12"
  system-tested: "HCC70"
  cat: "TRUE"
- molecule: "CC[C@@]1(O)C(=O)OCc2c1cc1n(c2=O)Cc2cc3cc(O)ccc3nc2-1 [10-Hydroxycamptothecin]"
  system-tested: "HCC70"
  cat: "TRUE"
- molecule: "O=C(NC1CCNCC1)c1[nH]ncc1NC(=O)c1c(Cl)cccc1Cl"
  system-tested: "HCC70"
  cat: "FALSE"
- molecule: "C=CC(=O)Nc1ccc2ncnc(Nc3ccc(OCc4cccc(F)c4)c(Cl)c3)c2c1"
  system-tested: "HCC70"
  cat: "TRUE"
- molecule: "CC(=O)c1c(C)c2cnc(Nc3ccc(N4CCNCC4)cn3)nc2n(C2CCCC2)c1=O"
  system-tested: "HCC70"
  cat: "TRUE"
- molecule: "Clc1ccc(C2(c3ccc(-c4cn[nH]c4)cc3)CCNCC2)cc1"
  system-tested: "HCC70"
  cat: "TRUE"
- molecule: "C=CC(=O)N1CCC[C@@H](n2nc(-c3ccc(Oc4ccccc4)cc3)c3c(N)ncnc32)C1"
  system-tested: "HCC70"
  cat: "TRUE"
- molecule: "COc1cc2nccc(Oc3ccc(NC(=O)C4(C(=O)Nc5ccc(F)cc5)CC4)cc3)c2cc1OC"
  system-tested: "HCC70"
  cat: "FALSE"
- molecule: "CCc1cc(Nc2nccc(-c3c(-c4ccc(OC)c(C(=O)Nc5c(F)cccc5F)c4)nc4ccccn34)n2)c(OC)cc1N1CCC(N2CCN(S(C)(=O)=O)CC2)CC1 [GSK1904529A]"
  system-tested: "HCC70"
  cat: "TRUE"
- molecule: "c1ccc2c(CCNc3ccc(Nc4ccncc4)cc3)c[nH]c2c1"
  system-tested: "HCC70"
  cat: "TRUE"

Value source: patent US9737535B2
